IC50: recorded values
- study_target: 3-oxo-5-alpha-steroid 4-dehydrogenase 1 (Homo sapiens, UniProt P18405)
- Sequence (P18405 whole entry): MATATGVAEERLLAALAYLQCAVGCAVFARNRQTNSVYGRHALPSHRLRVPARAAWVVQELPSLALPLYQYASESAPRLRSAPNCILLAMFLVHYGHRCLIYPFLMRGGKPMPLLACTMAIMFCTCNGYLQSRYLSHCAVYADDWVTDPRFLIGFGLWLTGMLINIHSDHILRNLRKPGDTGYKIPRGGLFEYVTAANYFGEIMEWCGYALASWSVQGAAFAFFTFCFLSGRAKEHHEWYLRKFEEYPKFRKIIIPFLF
- protocol_text: Inhibitory activity against 5-alpha-reductase type 1 in cell culture system using LNCaP cells (androgen-sensitive human prostatic cancer cell line)

Ask: Form field: reported IC50 of `O=c1ccc2ccc(O)cc2o1`
Result: > 123 µM

Ask: Record request: IC50 value, item `C=CCc1c(OC(=O)c2ccccc2)ccc2ccc(=O)oc12`
Result: 0.49 µM

###

The following compounds are shown together with reported IC50 values.
- study_target: 3-oxo-5-alpha-steroid 4-dehydrogenase 1 (Homo sapiens, UniProt P18405)
- protocol_text: Inhibitory activity against 5-alpha-reductase type 1 in cell culture system using LNCaP cells (androgen-sensitive human prostatic cancer cell line)

# example entries with known answers
- structure_smiles: "C=CCOc1ccc2ccc(=O)oc2c1"
  study_target: "3-oxo-5-alpha-steroid 4-dehydrogenase 1 (Homo sapiens, UniProt P18405)"
  IC50: "> 98.9 µM"
- structure_smiles: "C=CCc1c(OC(C)(C)C=C)ccc2ccc(=O)oc12"
  study_target: "3-oxo-5-alpha-steroid 4-dehydrogenase 1 (Homo sapiens, UniProt P18405)"
  IC50: "50.3 µM"
- structure_smiles: "C=CC(C)(C)Oc1ccc2ccc(=O)oc2c1"
  study_target: "3-oxo-5-alpha-steroid 4-dehydrogenase 1 (Homo sapiens, UniProt P18405)"
  IC50: "1.3 µM"
- structure_smiles: "C=CCc1c(OCC(C)=O)ccc2ccc(=O)oc12"
  study_target: "3-oxo-5-alpha-steroid 4-dehydrogenase 1 (Homo sapiens, UniProt P18405)"
  IC50: "> 77.4 µM"
- structure_smiles: "C#CC(C)(C)Oc1ccc2ccc(=O)oc2c1CC=C"
  study_target: "3-oxo-5-alpha-steroid 4-dehydrogenase 1 (Homo sapiens, UniProt P18405)"
  IC50: "> 14.9 µM"

Could you now look at the following compound, please?
Ask: # query: IC50 of entry `C=CCc1c(OCc2ccccc2)ccc2ccc(=O)oc12`
Result: > 13.7 µM

###

- study_target: UniProt P18405
- protocol_text: Inhibitory activity against 5-alpha-reductase type 1 in cell culture system using LNCaP cells (androgen-sensitive human prostatic cancer cell line)
pIC50: −log10 of the molar value.
The compounds listed here are annotated with their pIC50.

Examples with their reported pIC50 follow.
- structure_smiles: "C#CC(C)(C)Oc1ccc2ccc(=O)oc2c1"
  readout_value: "< 4.06"
- structure_smiles: "C=CCc1c(OC)ccc2ccc(=O)oc12"
  readout_value: "< 4.73"
- structure_smiles: "C#CCOc1ccc2ccc(=O)oc2c1"
  readout_value: "< 4.00"

Ask: Reported pIC50 for `C=CCc1c(OCCO)ccc2ccc(=O)oc12` : what is it?
Result: < 4.09
